The measured values listed here are drawn from PubChem BioAssay.

# Assay Method Text: RAM pathway blockade in budding yeast – dse1pr::URA3 reporter, 5-FOA selection, pilot screen (AID 869);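 further: 0% = DMSO wells with no growth and 100% = 10 µM 1-NA-PP1 with full growth; RAM network block rescues cells from 5-FOA so hits raise OD615 growth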
# Test Context: S. cerevisiae dse1pr::URA3 5-FOA growth, OD615, 2 d; at 10 µM; hits give high values; strain carries analog-sensitive mutant Cbk1 kinase
As shown below, each of these compounds has a reported inhibition value.
Readout Name: inhibition (%)

[[record]]
compound = "Cn1c(=O)c2c(nc(CN3CCc4ccccc4C3)n2Cc2cccc(Cl)c2)n(C)c1=O"
value_measured = -0.785

[[record]]
compound = "CCn1c(CCC(=O)Nc2cc(F)ccc2C)nc2cc(S(=O)(=O)N(C)C)ccc21"
value_measured = 2.07

[[record]]
compound = "COc1ccc(Cc2nnc(NC(=O)c3c(-c4ccccc4)noc3C)s2)cc1"
value_measured = 1.82

[[record]]
compound = "Cc1nc2ccc(S(=O)(=O)NC(C(=O)N3CCC(C)CC3)C(C)C)cc2s1 (centres undefined)"
value_measured = 2.38

[[record]]
compound = "COC(=O)c1cn(NC(=O)C2CCCO2)c(=O)c2ccccc12 (centres undefined)"
value_measured = 1.48

[[record]]
compound = "COC(=O)C1=C(N)OC2=C(C(=O)CCC2)C1c1cccs1 (centres undefined)"
value_measured = 2.75

[[record]]
compound = "O=C(Nn1cnnc1)C1Cc2ccccc2CN1S(=O)(=O)c1ccc(F)cc1 (centres undefined)"
value_measured = 0.38

[[record]]
compound = "Cn1c(C(=O)NCCCN2CCN(c3ccc(F)cc3)CC2)cc2c(=O)n(C)c3ccccc3c21"
value_measured = -0.495

[[record]]
compound = "CCOc1ccc(N(CC(=O)Nc2ccccc2)S(C)(=O)=O)cc1"
value_measured = -0.325

[[record]]
compound = "O=c1[nH]c2ccc(Br)cc2c(-c2ccccc2)c1N1CCOCC1"
value_measured = 1.29

[[record]]
compound = "Cc1nc2ccc(S(=O)(=O)NC(C(=O)N3CCCC3)C(C)C)cc2s1 (centres undefined)"
value_measured = 2.62

[[record]]
compound = "Cc1cc2ncn(C3CC(=O)N(Cc4ccc(N5CCCC5=O)cc4)C3=O)c2cc1C (centres undefined)"
value_measured = 0.14

[[record]]
compound = "CCCCCOC(=O)NCC(O)c1ccccc1 (centres undefined)"
value_measured = 2.22

[[record]]
compound = "O=C(Nc1c(F)cc(F)cc1Br)c1cc(-c2ccc(O)cc2)on1"
value_measured = 0.53

